Target: mouse B6 class I antigens (mouse)
Experiment: Binding of 9-mer peptides within p117-139 to mouse B6 (H-2^b) class I; RMA-S cell MHC stabilisation, flow cytometry
# Binding Affinity to Mouse MHC Class I annotations
measured.endpoint: Binding Affinity to Mouse MHC Class I (%)

[
  {
    "binder": "SQASSGQAR [WT1 peptide P118-126 (…)]",
    "recorded.measurement": 2
  },
  {
    "binder": "QASSGQARM [WT1 peptide P119-127 (…)]",
    "recorded.measurement": 2
  },
  {
    "binder": "NAPYLPSCL [WT1 peptide P130-138 (…)]",
    "recorded.measurement": 79
  },
  {
    "binder": "ARMFPNAPY [WT1 peptide P125-133 (…)]",
    "recorded.measurement": 1
  },
  {
    "binder": "FPNAPYLPS [WT1 peptide P128-136 (…)]",
    "recorded.measurement": 1
  },
  {
    "binder": "MFPNAPYLP [WT1 peptide P127-135 (…)]",
    "recorded.measurement": 2
  },
  {
    "binder": "SSGQARMFP [WT1 peptide P121-129 (…)]",
    "recorded.measurement": 1
  },
  {
    "binder": "QARMFPNAP [WT1 peptide P124-132 (…)]",
    "recorded.measurement": 1
  },
  {
    "binder": "ASSGQARMF [WT1 peptide P120-128 (…)]",
    "recorded.measurement": 1
  },
  {
    "binder": "PSQASSGQA [WT1 peptide P117-125 (…)]",
    "recorded.measurement": 2
  },
  {
    "binder": "PNAPYLPSC [WT1 peptide P129-137 (…)]",
    "recorded.measurement": 1
  },
  {
    "binder": "APYLPSCLE [WT1 peptide P131-139 (…)]",
    "recorded.measurement": 1
  }
]
